Tested on: UO-31 renal
Assay: NCI tumour cell line growth inhibition, 48 h
recorded-metric: TGI

Reference set, count: 4
Cc1cc(NS(=O)(=O)c2ccc(Nc3c4ccccc4nc4c(C(=O)NCCN(C)C)ccc(Cl)c34)cc2)no1 = 7.84 µM
COc1ccc([Se]c2ccc(OC)cc2OC)c(OC)c1 = 65.8 µM
OC(CC(c1ccccc1)c1ccc(Cl)cc1)c1ccc(Cl)cc1 (configuration not stated) = > 100 µM
CC1=NN(C(=O)CC(=O)Nc2cccc(Cl)c2)C(=O)C1N=Nc1ccc(S(N)(=O)=O)cc1 (configuration not stated) = > 100 µM

Problem: Give the measured TGI for COc1cc(S(=O)(=O)Nc2nc(-c3ccc(N4C(=O)/C(=C/c5ccccc5)N=C4c4ccccc4)cc3)cs2)ccc1Cl
Solution: > 100 µM

Problem: Provide TGI value for the following molecule: COc1ccc(C2CC(c3c(C)nn(-c4ccccc4)c3-c3ccc(C)cc3O)=NN2c2ccccc2)cc1 (configuration not stated)
Solution: > 100 µM

Problem: Give reported TGI value for COc1ccc(N2C(=O)C3c4[nH]c5ccc(C)cc5c4C4CCC(C(C)C)CC4C3C2=O)cc1 (configuration not stated)
Solution: > 100 µM

Problem: Give TGI for the following molecule: O=C1CSC2(CC(/C=C/C=C/c3ccccc3)=NN2c2cccc(S(=O)(=O)O)c2)N1c1nc2ccccc2s1 (configuration not stated)
Solution: > 100 µM

Problem: Tell me TGI reported for O=c1c2ccccc2nc(-c2ccccc2)n1NCC1(O)OCC(O)C(O)C1O (configuration not stated)
Solution: > 100 µM

Problem: Give the measured TGI for O=C1C/C(=C\O)C(=O)c2ccccc2N1
Solution: > 100 µM

Problem: # return recorded TGI for input O=C(O)c1cc(Cl)cc(NC(=O)C(Cl)Cl)c1Cl
Solution: > 100 µM

Problem: Return the recorded TGI value; entry: Cc1cnc(Cl)nc1C(C#N)c1nc2ccccc2n1C (configuration not stated)
Solution: > 100 µM

Problem: Fill in reported TGI for this entry: COc1ccc2nc3ccc(OC)cc3c(SCCCN)c2c1
Solution: 18.3 µM

* * *

Test system: MCF7 breast
Experiment: NCI tumour cell line growth inhibition, 48 h
We begin with a simple list: items and their reported TGI.

Recorded TGI, per entry:
O=C1c2ccccc2NC2C(O)c3ccccc3N12 (centres undefined) = > 100 µM
O=C(N[C@@H]1CCCc2ccccc21)[C@H](CCC(=O)N1CCN(C2CCCCC2)CC1)N1C(=O)[C@@H](N2C(=O)OC[C@@H]2c2ccccc2)[C@H]1/C=C/c1ccccc1 = 13.4 µM
CC[C@@]1(OC(=O)CN)C(=O)OCc2c1cc1n(c2=O)Cc2cc3cc(N)ccc3nc2-1 = > 100 µM
COC(=O)C(C)N1C(=O)c2ccccc2I1OC(C)=O (centres undefined) = > 100 µM
CN(C)c1ccc(-c2nc(-c3cc4c(ccc5ccccc54)oc3=O)cs2)cc1 = > 100 µM

Attention now turns to another entry.
Problem: Specify TGI for O=C1OC(c2ccc(O)cc2)(c2ccc(O)cc2)c2cccc3cccc1c23 and stop.
Solution: 25.9 µM

* * *

Tested on: SK-MEL-2 melanoma
Reported GI50 by item:

Problem: Give GI50; test system SK-MEL-2 melanoma; compound CCN(CC)CCOc1ccc(/C=C2\C[C@H]3[C@@H]4CC=C5C[C@@H](OC(C)=O)CC[C@]5(C)[C@H]4CC[C@]3(C)[C@H]2OC(C)=O)cc1OC
Solution: 19.2 µM

Problem: Provide GI50, recorded with SK-MEL-2 melanoma, of O=C(/C=C/N1CCN(c2cccc(C(F)(F)F)c2)CC1)c1ccc(Cl)cc1Cl
Solution: 37.5 µM

Problem: Please report GI50 with SK-MEL-2 melanoma for item CC1Cc2c(N(C)C)ncnc2N(C)c2ccc(Cl)cc21 (stereo not drawn) .
Solution: 5.88 µM

Problem: Return reported GI50 for target or system SK-MEL-2 melanoma, item CN1C(=O)c2cc(Cl)nc3c(NC(=O)c4cccc(Cl)c4)c(Cl)c(NC(=O)c4cccc(Cl)c4)c1c23 .
Solution: 2.19 µM

Problem: Look up and report measured GI50 (SK-MEL-2 melanoma) for the following compound: CC(C)OP(=O)(CP(=O)(OC(C)C)OC(C)C)OC(C)C.[CH3][Sn]([Br])([Br])[Br]
Solution: > 100 µM

Problem: Answer with GI50 of CC[C@@]1(OC(=O)CN)C(=O)OCc2c1cc1n(c2=O)Cc2cc3cc(N)ccc3nc2-1 measured for SK-MEL-2 melanoma.
Solution: < 0.0441 µM

Problem: Recall the reported GI50 of Cc1nn(-c2ccccc2)c2c1C1C(=C(c3ccc(Cl)cc3)N2)C(=O)Nc2ccccc21 (stereo not drawn) when tested on SK-MEL-2 melanoma.
Solution: 1.87 µM

Problem: Please report the measured GI50 for COc1cccc(-c2nn(-c3ccccc3)cc2-c2ccnc(NCCNC(=O)Nc3ccc(Cl)c(Cl)c3)c2)c1 tested on SK-MEL-2 melanoma.
Solution: 2.09 µM

* * *

Tested on: MOLT-4 leukemia
Assay: NCI tumour cell line growth inhibition, 48 h
molecules and their reported TGI

O=C1c2cc([N+](=O)[O-])ccc2NC2C(O)c3ccccc3N12 (stereo not given) = 49.1 µM
CC(=O)N[C@@H](Cc1ccc(O)cn1)C(=O)NCc1ccc2c(c1)OCO2 = > 100 µM
COC(=O)C12CC(C3CC31)C1CC12 (stereo not given) = > 100 µM
CC(C)=CC(=O)O[C@@H]1CC(C)(C)CC2C3=CCC4[C@]56CC[C@](O)(OC5)C(C)(C)C6CC[C@@]4(C)C3(C)CC[C@]21C(=O)O (stereo not given in full) = > 100 µM

Attention now shifts to the item below.
Problem: Give TGI; test system MOLT-4 leukemia; molecule CC(CC(=O)O)(CC(=O)O)C(=O)O
Solution: > 100 µM

* * *

Known TGI of a selection of compounds
System: NCI-H226 lung
Test: NCI tumour cell line growth inhibition, 48 h

Consider the worked cases shown below.
COc1ccc(N2C(=O)C3c4[nH]c5ccc(C)cc5c4C4CCC(C(C)C)CC4C3C2=O)cc1 (stereo unspecified) = > 100 µM
O=S1(=O)NNC(=NCc2ccc(F)cc2)c2ccccc21 = > 100 µM
CC(=O)N[C@@H](Cc1ccc(O)cn1)C(=O)NCc1ccc2c(c1)OCO2 = > 100 µM
CCOC(=O)c1[nH]c2c(c1C)-c1[nH]c(=O)c(S(=O)(=O)c3ccccc3)cc1SC2 = > 100 µM

Now take the following compound into account.
Problem: Quick one: give measured TGI for COC(=O)[C@H](Cc1ccccc1)NC(=O)c1csc([C@@H](C[C@H](C(C)C)N(C)C(=O)[C@@H](NC(=O)[C@H]2CCCCN2C)C2CC2)OC(C)=O)n1
Solution: > 25 µM

* * *

Tested on: ACHN renal
Assay: NCI tumour cell line growth inhibition, 48 h
recorded-metric: TGI

Record excerpt, results attached:
CCOc1ccc(NC(=O)c2c(N/N=C/c3ccc(OC)cc3)nc(=O)[nH]c2C)cc1 = > 100 µM
CC1OC(=O)N(CCCC=C2SCCCS2)C1=O (configuration not stated) = > 100 µM
CCOC(=O)c1cnc2[nH]c(=O)c3ccccc3n2c1=O = > 100 µM
Cc1ccc(C2=Nc3c(N)ncnc3NC(c3cccc(Nc4ccnc5cc(C(F)(F)F)ccc45)c3)C2)cc1 (configuration not stated) = > 100 µM
COC(=O)C12CC(C3CC31)C1CC12 (configuration not stated) = > 100 µM

Problem: Retrieve TGI measured for COC(=O)/C(=N\NC(=O)c1ccccc1O)C(C#N)c1ccc(Cl)cc1 (configuration not stated) and print it.
Solution: > 100 µM

Problem: Entry COc1ccc2c(c1O)[C@@]13C=C(O)C(=O)C=C1[C@@H](C2)N(C)CC3 needs its TGI filled in; supply it.
Solution: > 100 µM

* * *

Tested on: HCT-15 colon
Experiment: NCI tumour cell line growth inhibition, 48 h; in the data active means GI50 below about 0.43 µM; inactive means the rest
Form entry, call: pick from 1 (yes) for active, 0 (no) for inactive

The examples below pair each entry with its known result.
Cc1ccc([P+](Cc2ccc([N+](=O)[O-])cc2)(c2ccc(C)cc2)c2ccc(C)cc2)cc1 = 0 (no)
CC(=O)[CH-]C(=O)c1ccccc1.CC(=O)[CH-]C(=O)c1ccccc1.[O]=[U+2]=[O] = 0 (no)
CCN(CC)CCOc1ccc(/C=C2\C[C@H]3[C@@H]4CC=C5C[C@@H](OC(C)=O)CC[C@]5(C)[C@H]4CC[C@]3(C)[C@H]2OC(C)=O)cc1OC = 0 (no)
Cc1ccc(NCSc2ccc(Cl)cc2)cc1 = 0 (no)

Problem: Record lookup: outcome of this test for C/C(=C(/c1ccc(O)cc1)c1ccc(OCCN2CCCC2)cc1)c1ccccc1 ?
Solution: 0 (no)

Problem: Hello, I am checking results. What call was entered for COc1ccccc1Cn1cc2c(c1)-c1oncc1CC2 ?
Solution: 0 (no)
